System: NCI-H358 cells (express KRas G12C), Phospho-ERK
Assay: Cellular inhibition of KRas G12C: Phospho-ERK in NCI-H358 cells
Format: cell-based
Conditions: Homo sapiens, NCI-H358, 3 h, pERK(Thr202/Tyr204) normalized with GAPDH; NCI-H358 cells; 3 hours; read-out: IC50
pIC50: −log10 of the molar value.
property.name: pIC50

As a guide, the following entries are already answered.
| compound | pIC50 |
| --- | --- |
| CN(C)C/C=C/C(=O)N1CCN(c2nc(OC[C@@H]3CCCN3C)nc3c2CCN(c2cccc(Cl)c2C(F)(F)F)C3)C[C@@H]1CC#N | 6.00 to 10.00 |
| C=CC(=O)N1CCN(c2nc(OC[C@@H]3CCCN3C)nc3c2CCN(c2cc(OC)cc4ccccc24)C3)C[C@@H]1CC#N | 6.00 to 10.00 |

Return reported pIC50; argument: C=CC(=O)N1CCN(c2nc(OCC(O)CO)nc3c2CCN(c2cc(O)cc4ccccc24)C3)CC1 (stereo not shown)
< 6.00

Reported pIC50 for C=CC(=O)N1CCN(c2nc(OCCCN3CCOCC3)nc3c2CCN(c2cc(O)cc4ccccc24)C3)CC1 : what is it?
6.00 to 10.00

State the recorded pIC50 for this entry: C=CS(=O)(=O)N1CCN(c2nc(OC[C@@H]3CCCN3C)nc3c2CCN(c2cccc(C)c2C)C3)CC1
< 6.00

// query pIC50 value for entry C=CC(=O)N1CCN(c2nc(OCCN(C)C)nc3c2CCN(c2cc(O)cc4ccccc24)C3)C[C@@H]1CC#N
6.00 to 10.00

Tell me the measured pIC50 of C=CC(=O)N1CCN(c2nc(OC[C@@H]3CCCN3C)nc3c2CCN(c2ccncc2C)C3)C[C@@H]1CC#N , please.
< 6.00
